Parameter: Binding energy. Scope: all listed entries.
target: Voltage-gated L-type calcium channel (Homo sapiens, UniProt Q13936+Q13698+Q01668+O60840)
protocol: Evaluated for the free energies of binding (delta G) (in the resting state (rs) of voltage-gated L-type [Ca2+] channel (VGCCs))
Assay type: protein assay
Give a bare numeral; the unit kcal/M is implied.

compound	Binding energy, kcal/M
COC(=O)C1=C(C)N=C(C)/C(=C(\O)OC)C1c1ccccc1F (stereo not given)	-11.512
COC(=O)C1=C(C)N=C(C)/C(=C(\O)OC)C1c1ccccc1OC (stereo not given)	-10.735

*Q* Can you look up the measured Binding energy of CC1=CC(c2ccccc2OC(F)F)C([N+](=O)[O-])=C(C)N1 (stereo in doubt; form 1) for me?
*A* -7.422

*Q* Can you look up the measured Binding energy of COC(=O)C1=C(C)NC(C)=C(C(=O)OC)C1c1ccccc1[N+](=O)[O-] for me?
*A* -12.385

*Q* Can you look up the measured Binding energy of COC(=O)C1=C(C)N=C(C)/C(=C(\O)OC)C1c1cccc(OC)c1 (stereo in doubt; form 1) for me?
*A* -9.916

----------
property-measured: Delta Gsolv (kcal/mol)
Give a bare numeral; the unit kcal/mol is implied.

compound	property-measured	number
CC1=C([N+](=O)[O-])C(c2ccccc2OC(F)F)C([N+](=O)[O-])=C(C)N1	Delta Gsolv	-16.994
COC(=O)C1=C(C)N=C(C)/C(=C(\O)OC)C1c1c(F)c(F)c(F)c(F)c1F (configuration not stated)	Delta Gsolv	-9.442
COC(=O)C1=C(C)N=C(C)/C(=C(\O)OC)C1c1ccc(Cl)cc1 (stereo in doubt; form 1)	Delta Gsolv	-9.2
COC(=O)C1=C(C)N=C(C)/C(=C(\O)OC)C1c1ccccc1Cl (configuration not stated)	Delta Gsolv	-9.26
COC(=O)C1=C(C)N=C(C)/C(=C(\O)OC)C1c1ccc(C)cc1 (configuration not stated)	Delta Gsolv	-8.19
COC(=O)C1=C(C)N=C(C)/C(=C(\O)OC)C1c1ccccc1C#N (configuration not stated)	Delta Gsolv	-9.74

Consider now this further compound.
*Q* Can you look up the measured Delta Gsolv of COC(=O)C1=C(C)N=C(C)/C(=C(\O)OC)C1c1ccccc1I (configuration not stated) for me?
*A* -9.18

----------
target: Voltage-gated L-type calcium channel (Homo sapiens, UniProt Q13936+Q13698+Q01668+O60840)
protocol: Free energy of binding (delta G) for inactivated state (is) of voltage-gated L-type [Ca2+] channel(VGCCs)
Assay type: protein assay
property-measured: Binding energy (kcal/M)
Give a bare numeral; the unit kcal/M is implied.

Look over these answered cases.
compound	Binding energy, kcal/M
CO/C(O)=C1\C(C)=NC(C)=C([N+](=O)[O-])C1c1ccccc1OC(F)F (stereo not drawn)	-10.564
COC(=O)C1=C(C)N=C(C)/C(=C(\O)OC)C1c1ccc(Cl)cc1 (stereo in doubt; form 1)	-8.964

*Q* Param readout = Binding energy; param system = Voltage-gated L-type calcium channel (Homo sapiens, UniProt Q13936+Q13698+Q01668+O60840); param query = COC(=O)C1=C(C)NC(C)=C([N+](=O)[O-])C1c1ccccc1C(F)(F)F (stereo in doubt; form 2) ; response: value
*A* -10.641

----------
Parameter: Delta Gsolv. Scope: all listed entries.
Give a bare numeral; the unit kcal/mol is implied.

Look over these answered cases.
compound	Delta Gsolv [kcal/mol]
CC1=CC(c2ccccc2OC(F)F)C([N+](=O)[O-])=C(C)N1 (stereo in doubt; form 1)	-11.269
COC(=O)C1=C(C)N=C(C)/C(=C(\O)OC)C1c1ccccc1F (stereo not given)	-9.804
COC(=O)C1=C(C)N=C(C)/C(=C(\O)OC)C1c1ccc(Cl)cc1 (stereo in doubt; form 2)	-8.79
CC1=CC(c2ccccc2C(F)(F)F)C([N+](=O)[O-])=C(C)N1 (stereo in doubt; form 2)	-10.33
COC(=O)C1=C(C)N=C(C)/C(=C(\O)OC)C1c1cccc(OC)c1 (stereo in doubt; form 2)	-9.756

*Q* Can you look up the measured Delta Gsolv of COC(=O)C1=C(C)N=C(C)/C(=C(\O)OC)C1c1ccc(F)cc1 (stereo not given) for me?
*A* -9.427

*Q* Can you look up the measured Delta Gsolv of COC(=O)C1=C(C)N=C(C)/C(=C(/O)OC)C1c1cccc(Cl)c1 (stereo not given) for me?
*A* -8.94

*Q* Can you look up the measured Delta Gsolv of COC(=O)C1=C(C)N=C(C)/C(=C(\O)OC)C1c1cccc(C)c1 (stereo not given) for me?
*A* -8.407

----------
Parameter: Delta Gsolv. Scope: all listed entries.
Give a bare numeral; the unit kcal/mol is implied.

Look over these answered cases.
molecule	Delta Gsolv, kcal/mol
CO/C(O)=C1\C(C)=NC(C)=C([N+](=O)[O-])C1c1ccccc1OC(F)F (configuration not stated)	-14.543
CC1=CC(c2ccccc2OC(F)F)C([N+](=O)[O-])=C(C)N1 (stereo in doubt; form 2)	-10.096
COC(=O)C1=C(C)N=C(C)/C(=C(\O)OC)C1c1cccc(F)c1 (configuration not stated)	-9.56
COC(=O)C1=C(C)N=C(C)/C(=C(\O)OC)C1c1cccc(C#N)c1 (stereo in doubt; form 1)	-10.743
COC(=O)C1=C(C)N=C(C)/C(=C(\O)OC)C1c1ccccc1Br (configuration not stated)	-9.256

*Q* Can you look up the measured Delta Gsolv of COC(=O)C1=C(C)N=C(C)/C(=C(\O)OC)C1c1cccc(C#N)c1 (stereo in doubt; form 2) for me?
*A* -10.65

*Q* Can you look up the measured Delta Gsolv of COC(=O)C1=C(C)N=C(C)/C(=C(\O)OC)C1c1ccccc1OC (configuration not stated) for me?
*A* -10.468
